# Assay remarks: in vitro
# Assay context: both, human, plasma
Starred links: 1 amine or outer side, 2 acyl side, 3 side chain; linkers in the order of their positions; H or OH if unused. Non-standard residues stand in square brackets, D forms with d. Residues, ends and D or L forms follow the SMILES beside them. X1 = CC(C)C[C@H](NC(=S)[C@H](Cc1ccc(O)cc1)N[*:1])C(=O)[*:2]; X2 = CC(C)C[C@H](NC(=S)[C@@H](CC(C)C)N[*:1])C(=O)[*:2]; X3 = CC(C)C[C@H](N[*:1])C(=S)N[C@H](CC(C)C)C(=O)[*:2]; X5 = CC(C)C[C@H](NC(=S)[C@H](CC(C)C)N[*:1])C(=O)[*:2]; X4 = CC(C)C[C@H](N[*:1])C(=S)N1CCC[C@@H]1C(=O)[*:2]; NMeY = CN[C@@H](Cc1ccc(O)cc1)C(=O)O; NMeL = CN[C@@H](CC(C)C)C(=O)O
Readout label: remaining at 24 h (%)

Here are 5 compounds together with their reported answers.
Compound | Result units | remaining at 24 h
CC(C)C[C@@H]1NC(=O)[C@H](Cc2ccc(O)cc2)NC(=O)[C@H]2CCCN2C(=O)[C@H](CC(C)C)NC(=O)[C@H](CC(C)C)NC(=S)[C@@H](CC(C)C)NC1=O [10a] (cyclo(L[dP]YL[X2])) | % | 45
CC(C)C[C@@H]1NC(=O)[C@@H](CC(C)C)NC(=O)[C@H](CC(C)C)N(C)C(=O)[C@H](Cc2ccc(O)cc2)NC(=O)[C@H]2CCCN2C(=O)[C@H](CC(C)C)NC1=O [10k] (cyclo(LL[dP]Y[NMeL][dL])) | % | 28
CC(C)C[C@@H]1NC(=O)[C@H](Cc2ccc(O)cc2)NC(=O)[C@H]2CCCN2C(=S)[C@H](CC(C)C)NC(=O)[C@H](CC(C)C)NC(=O)[C@@H](CC(C)C)NC1=O [10c] (cyclo(L[dL]L[X4]Y)) | % | 44
CC(C)C[C@@H]1NC(=O)[C@H](Cc2ccc(O)cc2)NC(=O)[C@H]2CCCN2C(=O)[C@H](CC(C)C)NC(=S)[C@H](CC(C)C)NC(=O)[C@@H](CC(C)C)NC1=O [10b] (cyclo(L[dL][X5][dP]Y)) | % | 47
CC(C)C[C@@H]1NC(=O)[C@@H](CC(C)C)NC(=S)[C@H](CC(C)C)NC(=O)[C@H](Cc2ccc(O)cc2)NC(=O)[C@H]2CCCN2C(=O)[C@H](CC(C)C)NC1=O [10f] (cyclo(LL[dP]Y[X3])) | % | 38

1: CC(C)C[C@@H]1NC(=O)[C@H](Cc2ccc(O)cc2)NC(=O)[C@H]2CCCN2C(=O)[C@H](CC(C)C)NC(=O)[C@H](CC(C)C)NC(=O)[C@@H](CC(C)C)NC1=O [compound 10, cyclo(-D-Leu^1-Leu-Leu-D-Pro-Tyr-Leu^6-)] (cyclo(LL[dP]YL[dL]))
2: CC(C)C[C@@H]1NC(=O)[C@@H](CC(C)C)NC(=O)[C@H](CC(C)C)NC(=S)[C@H](Cc2ccc(O)cc2)NC(=O)[C@H]2CCCN2C(=O)[C@H](CC(C)C)NC1=O [10e] (cyclo(LL[dP][X1][dL]))
Task: Name the one with the greater remaining at 24 h value, either 1 or 2 as given. Pick one; state its label.
Output: 2
(2: 50%, 1: 24%)

a: CC(C)C[C@@H]1NC(=O)[C@@H](CC(C)C)NC(=O)[C@H](CC(C)C)NC(=O)[C@H](Cc2ccc(O)cc2)N(C)C(=O)[C@H]2CCCN2C(=O)[C@H](CC(C)C)NC1=O [10j] (cyclo(LL[dP][NMeY]L[dL]))
b: CC(C)C[C@@H]1NC(=O)[C@H](Cc2ccc(O)cc2)NC(=O)[C@H]2CCCN2C(=O)[C@H](CC(C)C)N(C)C(=O)[C@H](CC(C)C)NC(=O)[C@@H](CC(C)C)NC1=O [10i] (cyclo(L[NMeL][dP]YL[dL]))
Task: Pick one: a or b . Which one has the lower reported remaining at 24 h? Pick one; state its label.
Output: a

----------
# Assay remarks: in vitro
# Assay context: pig, simulated intestinal fluid
Starred links: 1 amine or outer side, 2 acyl side, 3 side chain; linkers in the order of their positions; H or OH if unused. Non-standard residues stand in square brackets, D forms with d. Residues, ends and D or L forms follow the SMILES beside them. X6 = O=C([C@H](Cc1ccc(O)cc1)NC(=S)[C@H]1CCCN1[*:1])[*:2]; X4 = CC(C)C[C@H](N[*:1])C(=S)N1CCC[C@@H]1C(=O)[*:2]; NMeY = CN[C@@H](Cc1ccc(O)cc1)C(=O)O; NMeL = CN[C@@H](CC(C)C)C(=O)O
Readout label: remaining at 4 h (%)

Compound | Result units | remaining at 4 h
CC(C)C[C@@H]1NC(=O)[C@@H](CC(C)C)NC(=O)[C@H](CC(C)C)N(C)C(=O)[C@H](Cc2ccc(O)cc2)NC(=O)[C@H]2CCCN2C(=O)[C@H](CC(C)C)NC1=O [10k] (cyclo(LL[dP]Y[NMeL][dL])) | % | 30
CC(C)C[C@@H]1NC(=O)[C@H](Cc2ccc(O)cc2)NC(=O)[C@H]2CCCN2C(=S)[C@H](CC(C)C)NC(=O)[C@H](CC(C)C)NC(=O)[C@@H](CC(C)C)NC1=O [10c] (cyclo(L[dL]L[X4]Y)) | % | 29.3

I: CC(C)C[C@@H]1NC(=O)[C@H](Cc2ccc(O)cc2)NC(=S)[C@H]2CCCN2C(=O)[C@H](CC(C)C)NC(=O)[C@H](CC(C)C)NC(=O)[C@@H](CC(C)C)NC1=O [10d] (cyclo(LL[X6]L[dL]))
II: CC(C)C[C@@H]1NC(=O)[C@@H](CC(C)C)NC(=O)[C@H](CC(C)C)NC(=O)[C@H](Cc2ccc(O)cc2)N(C)C(=O)[C@H]2CCCN2C(=O)[C@H](CC(C)C)NC1=O [10j] (cyclo(LL[dP][NMeY]L[dL]))
III: CC(C)C[C@@H]1NC(=O)[C@H](Cc2ccc(O)cc2)NC(=O)[C@H]2CCCN2C(=O)[C@H](CC(C)C)NC(=O)[C@H](CC(C)C)N(C)C(=O)[C@@H](CC(C)C)NC1=O [10h] (cyclo(L[dL][NMeL]L[dP]Y))
Task: Please list the entries, largest remaining at 4 h first. # output: labels, in the requested order
Output: I, III, II
(I: 31.9%, III: 16%, II: 4.54%)

----------
# Assay remarks: in vitro
# Assay context: both, human, plasma
Starred links: 1 amine or outer side, 2 acyl side, 3 side chain; linkers in the order of their positions; H or OH if unused. Non-standard residues stand in square brackets, D forms with d. Residues, ends and D or L forms follow the SMILES beside them. X1 = CC(C)C[C@H](NC(=S)[C@H](Cc1ccc(O)cc1)N[*:1])C(=O)[*:2]; X6 = O=C([C@H](Cc1ccc(O)cc1)NC(=S)[C@H]1CCCN1[*:1])[*:2]; X2 = CC(C)C[C@H](NC(=S)[C@@H](CC(C)C)N[*:1])C(=O)[*:2]; X3 = CC(C)C[C@H](N[*:1])C(=S)N[C@H](CC(C)C)C(=O)[*:2]; X5 = CC(C)C[C@H](NC(=S)[C@H](CC(C)C)N[*:1])C(=O)[*:2]; X4 = CC(C)C[C@H](N[*:1])C(=S)N1CCC[C@@H]1C(=O)[*:2]
Readout label: remaining at 9 h (%)

Compound | Result units | remaining at 9 h
CC(C)C[C@@H]1NC(=O)[C@H](Cc2ccc(O)cc2)NC(=O)[C@H]2CCCN2C(=O)[C@H](CC(C)C)NC(=S)[C@H](CC(C)C)NC(=O)[C@@H](CC(C)C)NC1=O [10b] (cyclo(L[dL][X5][dP]Y)) | % | 74
CC(C)C[C@@H]1NC(=O)[C@@H](CC(C)C)NC(=S)[C@H](CC(C)C)NC(=O)[C@H](Cc2ccc(O)cc2)NC(=O)[C@H]2CCCN2C(=O)[C@H](CC(C)C)NC1=O [10f] (cyclo(LL[dP]Y[X3])) | % | 63
CC(C)C[C@@H]1NC(=O)[C@H](Cc2ccc(O)cc2)NC(=O)[C@H]2CCCN2C(=S)[C@H](CC(C)C)NC(=O)[C@H](CC(C)C)NC(=O)[C@@H](CC(C)C)NC1=O [10c] (cyclo(L[dL]L[X4]Y)) | % | 64
CC(C)C[C@@H]1NC(=O)[C@H](Cc2ccc(O)cc2)NC(=S)[C@H]2CCCN2C(=O)[C@H](CC(C)C)NC(=O)[C@H](CC(C)C)NC(=O)[C@@H](CC(C)C)NC1=O [10d] (cyclo(LL[X6]L[dL])) | % | 59
CC(C)C[C@@H]1NC(=O)[C@@H](CC(C)C)NC(=O)[C@H](CC(C)C)NC(=S)[C@H](Cc2ccc(O)cc2)NC(=O)[C@H]2CCCN2C(=O)[C@H](CC(C)C)NC1=O [10e] (cyclo(LL[dP][X1][dL])) | % | 67

P: CC(C)C[C@@H]1NC(=O)[C@H](Cc2ccc(O)cc2)NC(=O)[C@H]2CCCN2C(=O)[C@H](CC(C)C)NC(=O)[C@H](CC(C)C)NC(=S)[C@@H](CC(C)C)NC1=O [10a] (cyclo(L[dP]YL[X2]))
Q: CC(C)C[C@@H]1NC(=O)[C@H](Cc2ccc(O)cc2)NC(=O)[C@H]2CCCN2C(=O)[C@H](CC(C)C)NC(=O)[C@H](CC(C)C)NC(=O)[C@@H](CC(C)C)NC1=O [compound 10, cyclo(-D-Leu^1-Leu-Leu-D-Pro-Tyr-Leu^6-)] (cyclo(LL[dP]YL[dL]))
Task: Name the one with the greater remaining at 9 h value, either P or Q as given. Pick one; state its label.
Output: P
